Target: T1, Arc N-lobe (Arc-NL, Arc 207-277) (human, UniProt Q7LC44 207-277)
T1 construct: Activity-regulated cytoskeleton-associated protein (Arc), N-lobe, residues 207-277; identical for human, rat and mouse Arc-NL; construct His6-MBP-TEV-NL in pETMBP_1a; 8.9 kDa as printed; also called human Arc N-lobe; source: E. coli BL21(DE3), purified (Ni-NTA, tag cleavage, reverse Ni-NTA, SEC); not shown: His6, N-terminal, cleaved; MBP, N-terminal, cleaved
T1 sequence (looked up): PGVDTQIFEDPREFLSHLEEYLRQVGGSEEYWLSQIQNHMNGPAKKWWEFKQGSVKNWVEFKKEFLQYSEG
Test: ITC; 2 mM P1 (titrant) into 200 μM Arc-NL (titrate), TBS, 20 °C, three sequential titrations concatenated, 1:1 binding model, one replicate
Settings: both partners purified
Where no end group is shown, it is not given here.
ATTRIBUTE_MEASURED: Kd (µM)

{"columns": ["BINDER", "UNIT_SYMBOL", "OBSERVED_RESULT"],
 "data": [
  ["YGRKKRRQRRRGGRIPSYRYR (also: FITC label, position not given here, stretch of the transmembrane AMPAR regulatory protein γ2 (TARPγ2, stargazin); the split into TAT, linker and TARPγ2 stretch is mine; also called TARPγ2-derived peptide; source: synthetic peptide, bought: GenScript Biotech) [FITC-labelled, TAT-tagged TARPγ2 peptide (forward peptide P1)]", "µM", 5.31]
]}
